Origin of the recorded values: the RNAGym collection of RNA variant scans (doi:10.7554/elife.80360)

B1: Twister Ribozyme (parent)
chain: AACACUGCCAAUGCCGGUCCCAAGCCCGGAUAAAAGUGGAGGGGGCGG

# Variants of: B1
# assay_text: self-cleavage, relative activity (ratio to wild type); higher = more cleavage; co-transcriptional
Each entry falls in a class defined on self-cleavage; the bands are low (below 0.1), medium (0.1 to below 0.6), high (0.6 or more)

Worked set:
[[record]]
variant_descriptor = "A11G G13A"
class = "high"

[[record]]
variant_descriptor = "C9U G13U"
class = "high"

[[record]]
variant_descriptor = "C26U A33U"
class = "medium"

[[record]]
variant_descriptor = "A4U A23U"
class = "low"

[[record]]
variant_descriptor = "A2U G43C"
class = "medium"

[[record]]
variant_descriptor = "C26U G44C"
class = "medium"


[in] Any idea which band U6C G24A is in?
[out] low

[in] Same for G16A C46A
[out] high
